# ASSAY COMMENT: basal MM1S mitochondrial membrane potential changes, profiling panel, cell-based, JC-1 fluorescence, 24 h, 100 nL compound (AID 1170); further: test concentration not given here
# ASSAY SETUP: higher = more signal
Recorded z-score, one value per entry.
Just the number.

The following compounds have reported results that may help.
Cc1ccc(S[C@]2(C(=O)NC3CC3)CC(=O)N(Cc3cc(C(F)(F)F)cc(C(F)(F)F)c3)[C@@H]2c2ccc(CO)cc2)cc1 = -0.792
COc1ccc(CCN2C(=O)[C@@]3(c4ccc([N+](=O)[O-])cc4)CC(=O)N(CC45CC6CC(CC(C6)C4)C5)[C@@H]3c3ccc(CO)cc32)cc1 = 0.997
CN1C(=O)C2C=CC(C(O)c3ccc(N(C)C)cc3)N(Nc3ccc([N+](=O)[O-])cc3[N+](=O)[O-])C2C1=O (stereo not given) = -0.0883

Query block: Look up z-score for this compound: C=CC[C@@]1(C(=O)N2CCOCC2)N=C(c2ccc(OCCCO)cc2)O[C@@H]1c1ccccc1
Result block: 0.216

Query block: Item under review: CCCC=C(CCC)[C@@H](NS(=O)(=O)c1ccc(C(F)(F)F)cc1)c1ccc(-c2ccccc2)cc1 . Reported z-score?
Result block: -1.15

The reported numbers originate from PubChem BioAssay.
